Source: PubChem BioAssay

tested on: Fibrinogen (Alexa647-labelled); assay: fibrinogen binders on compound microarrays, profiling panel, artefact control for SMM control-protein annotation, biochemical, small-molecule microarray, 635/667 nm fluorescence (AID 1131); details: fibrinogen-A647 binding fluorescence, higher = more signal;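 also: z-score merges 667 nm fluorescence with per-spot signal-to-noise over triplicate slides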
Could you please report measured composite z-score for the items listed next?

INPUT: GET /values?readout=composite z-score&item= C#C[C@H](O[Si](C#Cc1ccc(Oc2ccccc2)cc1)(C(C)C)C(C)C)c1ccccc1
OUTPUT: 0.385

INPUT: Item CCOC(=O)C[C@H]1[C@H](OC(=O)c2ccc(-c3ccccc3)cc2)[C@@H](NC(=O)Cc2ccc(OC)cc2)c2cc(OCCCO)ccc2N1C(=O)c1ccccc1 has what recorded composite z-score?
OUTPUT: 0.44

INPUT: Return reported composite z-score; argument: O=C1O[C@H](c2ccccc2)[C@H](c2ccccc2)N2[C@H]1[C@@H](C(=O)N1CCCCCCC1)[C@]1(C(=O)Nc3ccc(C#CCCO)cc31)[C@H]2c1ccccc1OCCO
OUTPUT: 1.02
